- Tested on: HEK293 (non-expressing parental cells)
- assay_method_text: FACS cell surface binding
readout_type: FACS Cell Binding (Fold Above Background)
Answers are plain numbers, in Fold Above Background.

Query: Tell me the measured FACS Cell Binding (Fold Above Background) of H1H6792P: anti-PRLR antibody, human IgG1 Fc; HCVR/LCVR SEQ ID NOs 130/138 (antibody, V domains shown, human IgG1 Fc) VH: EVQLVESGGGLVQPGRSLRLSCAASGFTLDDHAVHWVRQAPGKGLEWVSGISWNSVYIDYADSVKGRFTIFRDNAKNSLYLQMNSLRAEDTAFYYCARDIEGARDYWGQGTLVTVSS VL: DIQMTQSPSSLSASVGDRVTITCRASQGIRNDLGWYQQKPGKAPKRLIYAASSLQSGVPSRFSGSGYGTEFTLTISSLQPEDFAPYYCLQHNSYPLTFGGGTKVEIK , please.
Response: 1
